- assay_procedure: Plasma lactulose after oral lactulose solution in canine NSAID-induced gastric ulceration model (ion chromatography)
- Type: in vivo, dog
- recorded_conditions: dog, plasma, po, 20 min after 0.6-0.7 g/kg PO; ulceration Absent (n = 8)
quantity_kind: concentration at 20 min (µM)

{"compound": "OC[C@H]1O[C@@H](O[C@@H]2[C@@H](CO)OC(O)(CO)[C@H]2O)[C@H](O)[C@@H](O)[C@H]1O (mixture of isomers) [Lactulose, lactulose]", "observed_result": 39.1}

====

- assay_procedure: Plasma lactulose after oral lactulose solution in canine NSAID-induced gastric ulceration model (ion chromatography)
- Assay type: in vivo, dog
- recorded_conditions: dog, plasma, po, 20 min after 0.6-0.7 g/kg PO; ulceration Moderate to severe (n = 4)
quantity_kind: concentration at 20 min (µM)

{"molecule": "OC[C@H]1O[C@@H](O[C@@H]2[C@@H](CO)OC(O)(CO)[C@H]2O)[C@H](O)[C@@H](O)[C@H]1O (mixture of isomers)", "quantity_kind": "concentration at 20 min", "observed_result": 94.3}
